System: U2OS
METHOD SUMMARY: Multiplex assay against U2OS
Assay type: toxicity, cell-based
STATED CONDITIONS: human, 24 h, 10 µM, compound concentration 10 uM, replicate 1
Yes if Population Tubulin-Different-Phenotype (%) is below 5%. No if not; exact matches included in No.

1) Nc1nc(CC(=O)Nc2ccc(CCNC[C@H](O)c3ccccc3)cc2)cs1 = Yes
2) COc1cc(C(=O)N2CC[C@@H](O)[C@@H](N)C2)cc2nc(-c3cc4ccccc4n3CC3CC3)n(C)c12.Cl = No
3) Cc1ccc(OCC(O)C(C)NC(C)C)c2c1CCC2.Cl (stereo not drawn) = Yes
4) S=C(NCCCc1c[nH]cn1)NCCCN(Cc1ccc(Cl)c(Cl)c1)c1ccc(Br)cn1 = No
5) CSc1nc(NC2CCCC2)c([N+](=O)[O-])c(NC2CCCC2)n1 = Yes
6) O=C(NCCNCC(O)COc1ccc(O)cc1)N1CCOCC1.O=C(NCCNCC(O)COc1ccc(O)cc1)N1CCOCC1.O=C(O)/C=C/C(=O)O (stereo not drawn) [XAMOTEROL FUMARATE] = Yes
7) COc1cc2nc(N3CCN(C(=O)c4ccco4)CC3)nc(N)c2cc1OC.Cl [PRAZOSIN HYDROCHLORIDE] = No

====

Each entry below lists one item and its recorded Population Mitochondria Different-Phenotype (%) value.
System: U2OS
METHOD SUMMARY: Multiplex assay against U2OS
Assay type: toxicity, cell-based
STATED CONDITIONS: human, 48 h, 1 µM, compound concentration 1 uM, replicate 1
MEASURE: Population Mitochondria Different-Phenotype (%)

1. O=C(O)CCC/C=C\CC1C(O)CC(O)C1/C=C/C(O)COc1cccc(Cl)c1 (stereo not drawn) = 1%
2. CCCCC[C@H](O)/C=C/[C@H]1[C@H](O)CC(=O)[C@@H]1CCCCCCC(=O)O = 2%
3. O=c1ccc2ccc(OCCCCN3CCN(c4cccc5sccc45)CC3)cc2[nH]1 = 12%
4. CC(C)(O)C(=O)N1CCN(c2ccc(C(F)(F)F)c(C3=C(c4c[nH]c5ccccc45)C(=O)NC3=O)c2)CC1 = 4%
5. CCCCCCNC(=O)Nc1ccc(S(=O)(=O)Nc2ccc(CCNC[C@H](O)COc3ccc(O)cc3)cc2)cc1 = 3%
6. Cc1nn(C)c2nc(NNC(=O)Nc3cc(Cl)nc(Cl)c3)cc(C(C)C)c12 = 3%
7. CC(C)C[C@H](CO)Nc1nc(S[C@@H](C)c2ccccc2)nc2nc(N)sc12 = 0%
8. O=c1nc2[nH]c3ccccc3nc-2c(=O)[nH]1 = 1%

====

Test system: HEK-293T
METHOD SUMMARY: Multiplex assay against HEK293T
Type: toxicity, cell-based
STATED CONDITIONS: human, 12 h, 1 µM, compound concentration 1 uM, replicate 2
MEASURE: Population Mitotic Cells (%)

1. CC(C)(O)C(=O)N1CCN(c2ccc(C(F)(F)F)c(C3=C(c4c[nH]c5ccccc45)C(=O)NC3=O)c2)CC1 = 53
2. Cc1nn(C)c2nc(NNC(=O)Nc3cc(Cl)nc(Cl)c3)cc(C(C)C)c12 = 60
3. Cc1ccc(OCC(O)C(C)NC(C)C)c2c1CCC2.Cl (stereo not given) = 54
4. CCc1nn2c(C)cc(C)nc2c1Cc1ccc(-c2nnc(C3CCNCC3)o2)cc1 = 48
5. CN(C)C(=O)Cn1cc(-c2ccc(-c3nnc4ccccn34)cc2)cn1 = 56
6. COc1cc2nc(N3CCN(C(=O)COc4c(OC)cccc4C(C)C)CC3)nc(N)c2cc1OC.Cl.Cl = 53
7. O=c1nc2[nH]c3ccccc3nc-2c(=O)[nH]1 = 55
8. COc1cc(C(=O)N2CC[C@@H](O)[C@@H](N)C2)cc2nc(-c3cc4ccccc4n3CC3CC3)n(C)c12.Cl = 29
9. OCCCNc1cc(-c2ccnc(Nc3cccc(Cl)c3)n2)ccn1 = 34
10. COCCn1c(C)c(C)s/c1=N\C(=O)C1C(C)(C)C1(C)C = 58

====

The following molecules are listed with their measured Population Healthy Nuclei (%) values.
System: HEK-293T
METHOD SUMMARY: Multiplex assay against HEK293T
Format: toxicity, cell-based
STATED CONDITIONS: human, 24 h, 10 µM, compound concentration 10 uM, replicate 1
MEASURE: Population Healthy Nuclei (%)

1. COCCCN1CCC(NC(=O)c2cc(Cl)c(N)c3c2OCC3)CC1 [PRUCALOPRIDE] = 77
2. Cl.Cl.OCCOCCN1CCN(C(c2ccccc2)c2ccc(Cl)cc2)CC1 (stereo not drawn) [HYDROXYZINE HYDROCHLORIDE] = 74
3. CN1C[C@H](C(=O)N[C@]2(C)O[C@@]3(O)[C@@H]4CCCN4C(=O)[C@H](Cc4ccccc4)N3C2=O)C[C@@H]2c3cccc4[nH]cc(c34)C[C@H]21.CS(=O)(=O)O [DIHYDROERGOTAMINE MESYLATE] = 76

====

Tested on: HEK-293T
METHOD SUMMARY: Multiplex assay against HEK293T
Type: toxicity, cell-based
STATED CONDITIONS: human, 12 h, 10 µM, compound concentration 10 uM, replicate 1
Documented Population Normal (%) across a set of molecules
MEASURE: Population Normal (%)

1) COc1c(Nc2ccc(S(C)(=O)=O)nc2C)ncnc1OC1CCN(C(=O)OC(C)C)CC1 = 91
2) COc1cc2nc(N3CCN(C(=O)COc4c(OC)cccc4C(C)C)CC3)nc(N)c2cc1OC.Cl.Cl = 74
3) O=C(NCCNCC(O)COc1ccc(O)cc1)N1CCOCC1.O=C(NCCNCC(O)COc1ccc(O)cc1)N1CCOCC1.O=C(O)/C=C/C(=O)O (configuration not stated) [XAMOTEROL FUMARATE] = 93
4) CSc1nc(NC2CCCC2)c([N+](=O)[O-])c(NC2CCCC2)n1 = 93
5) Cl.Cl.OCCOCCN1CCN(C(c2ccccc2)c2ccc(Cl)cc2)CC1 (configuration not stated) [HYDROXYZINE HYDROCHLORIDE] = 88
6) COC(c1ccccc1)(c1ccccc1)[C@H](Oc1nc(C)cc(C)n1)C(=O)O = 93
7) CN1CCN2c3ccccc3Cc3ccccc3C2C1.Cl (configuration not stated) [MIANSERIN HYDROCHLORIDE] = 90
8) CC(C)(C)c1ccc(CSc2cnn(C(C)(C)C)c(=O)c2Cl)cc1 = 88
9) CCc1nn2c(C)cc(C)nc2c1Cc1ccc(-c2nnc(C3CCNCC3)o2)cc1 = 88
10) Cc1c(Cc2ccc3ccccc3n2)c2cc(F)ccc2n1CC(=O)O = 93
11) CN(C)C(=O)Cn1cc(-c2ccc(-c3nnc4ccccn34)cc2)cn1 = 92
12) CN1CCC(C(=O)c2cccc(NC(=O)c3c(F)cc(F)cc3F)n2)CC1 = 91
13) CN(C)C/C=C/C(=O)Nc1ccc(C(=O)N2CCCC(Nc3ncc(Cl)c(-c4c[nH]c5ccccc45)n3)C2)cc1 (configuration not stated) = 64
14) CN1C[C@H](C(=O)N[C@]2(C)O[C@@]3(O)[C@@H]4CCCN4C(=O)[C@H](Cc4ccccc4)N3C2=O)C[C@@H]2c3cccc4[nH]cc(c34)C[C@H]21.CS(=O)(=O)O [DIHYDROERGOTAMINE MESYLATE] = 90
15) O=c1nc2[nH]c3ccccc3nc-2c(=O)[nH]1 = 94
16) CCC(=O)OCC(=O)[C@@]1(OC(=O)CC)[C@@H](C)C[C@H]2[C@@H]3CCC4=CC(=O)C=C[C@]4(C)[C@@]3(Cl)[C@@H](O)C[C@@]21C [BECLOMETHASONE DIPROPIONATE] = 85
17) COCCCN1CCC(NC(=O)c2cc(Cl)c(N)c3c2OCC3)CC1 [PRUCALOPRIDE] = 95

====

Test system: Fibroblast
METHOD SUMMARY: Multiplex assay against human fibroblast
Assay type: toxicity, cell-based
STATED CONDITIONS: 48 h, 10 µM, compound concentration 10 uM, replicate 1
Non-standard residues stand in square brackets, D forms with d. Residues, ends and D or L forms follow the SMILES beside them.
Reported Population Tubulin-Different-Phenotype (%) values are given for each entry in this list.
MEASURE: Population Tubulin-Different-Phenotype (%)

1) CSc1nc(NC2CCCC2)c([N+](=O)[O-])c(NC2CCCC2)n1 [GS-39783] = 41
2) CC(C)C[C@@H]1NC(=O)[C@@H](C(C)C)NC(=O)[C@@H]2CCCN2C(=O)[C@@H](CC(=O)O)NC(=O)[C@@H](Cc2c[nH]c3ccccc23)NC1=O [BQ-123] (cyclo(L[dW][dD]P[dV])) = 38
3) CN1CCN(c2ccc(Nc3c4ccccc4nc4ccccc34)cc2)CC1.Cl.Cl.O = 25
4) COc1ccc2c(c1OCc1ccccc1)C[C@@H](C(=O)O)N(C(=O)C(c1ccccc1)c1ccccc1)C2 [OLODANRIGAN] = 27

These entries and their values trace back to ChEMBL document CHEMBL5058577.
